Data provenance: patent US20250163064A1

tested-system: GDP-bound KRAS protein (aa 1-169), G12D and C118A; SOS-mediated nucleotide exchange (Homo sapiens (Human), UniProt P01116, C118A/G12D)
Sequence (P01116 other isoform, or with tags, fused parts or gaps G12D/C118A): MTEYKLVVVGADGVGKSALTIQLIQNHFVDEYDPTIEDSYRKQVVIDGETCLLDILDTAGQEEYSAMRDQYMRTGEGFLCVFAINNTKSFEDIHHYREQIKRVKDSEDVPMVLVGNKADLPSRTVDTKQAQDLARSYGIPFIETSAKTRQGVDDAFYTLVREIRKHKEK
experimental-protocol: KRAS G12D Coupled Nucleotide Exchange Assay
Assay type: biochemical
reported-conditions: 2 h compound pre-incubation, GTP, cRAF AlphaScreen
property-label: IC50 (nM)

>>> result_value("C[C@@]1(O)CCCN(c2nc(OC[C@@]34CCCN3C[C@H](F)C4)nc3c(F)c(-c4ccc(F)c5sc(N)c(C#N)c45)c(Cl)cc23)C1")
4
>>> result_value("C[C@@]1(CO)CCCN1c1nc(OC[C@@]23CCCN2C[C@H](F)C3)nc2c(F)c(-c3ccc(F)c4sc(N)c(C#N)c34)c(Cl)cc12")
7
>>> result_value("C[C@@H]1[C@H](O)CCN1c1nc(OC[C@@]23CCCN2C[C@H](F)C3)nc2c(F)c(-c3ccc(F)c4sc(N)c(C#N)c34)c(Cl)cc12")
6

(1) CC1(O)COCCN(c2nc(OC[C@@]34CCCN3C[C@H](F)C4)nc3c(F)c(-c4ccc(F)c5sc(N)c(C#N)c45)c(Cl)cc23)C1 (single isomer, unassigned) [Example 24]
(2) N#Cc1c(N)sc2c(F)ccc(-c3c(Cl)cc4c(N5CCCCC(C#N)C5)nc(OC[C@@]56CCCN5C[C@H](F)C6)nc4c3F)c12 (stereo partly drawn)
(3) N#Cc1c(N)sc2c(F)ccc(-c3c(Cl)cc4c(N5CCC6CCC(C5)O6)nc(OC[C@@]56CCCN5C[C@H](F)C6)nc4c3F)c12 (stereo partly drawn)
Query block: Rank descending by IC50. Provide your answer as the labels ordered per the instruction.
Result block: 3, 2, 1

---

tested-system: His-tagged KRAS G12D protein (Homo sapiens (Human), UniProt P01116, G12D)
Sequence (P01116-2 other isoform, or with tags, fused parts or gaps G12D): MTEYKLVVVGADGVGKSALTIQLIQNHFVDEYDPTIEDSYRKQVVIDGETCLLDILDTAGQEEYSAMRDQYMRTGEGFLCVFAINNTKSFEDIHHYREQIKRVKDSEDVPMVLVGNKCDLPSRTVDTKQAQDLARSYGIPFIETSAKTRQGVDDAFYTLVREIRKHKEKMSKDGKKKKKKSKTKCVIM
experimental-protocol: KRAS G12D TR-FRET Assay
reported-conditions: biotinylated KRPep-2d, 10 μM GDP
pIC50: −log10 of the molar value.
property-label: pIC50

>>> result_value("N#Cc1c(N)sc2c(F)ccc(-c3c(Cl)cc4c(N5CCCC6(COC6)C5)nc(OC[C@@]56CCCN5C[C@H](F)C6)nc4c3F)c12")
8.10
>>> result_value("N#Cc1c(N)sc2c(F)ccc(-c3c(Cl)cc4c(N5CCCCCCC5)nc(OC[C@@]56CCCN5C[C@H](F)C6)nc4c3F)c12")
9.00
>>> result_value("C=Cc1cc2c(N3CCOCC(C)(O)C3)nc(OC[C@@]34CCCN3C[C@H](F)C4)nc2c(F)c1-c1ccc(F)c2sc(N)c(C#N)c12 (stereo partly drawn)")
8.30
>>> result_value("CC1(O)COCCN(c2nc(OCC34CCCN3CC(F)(F)C4)nc3c(F)c(-c4ccc(F)c5sc(N)c(C#N)c45)c(Cl)cc23)C1 (single isomer, unassigned)")
8.10
>>> result_value("CCc1cc2c(N3CCOCC(C)(O)C3)nc(OC[C@@]34CCCN3C[C@H](F)C4)nc2c(F)c1-c1ccc(F)c2sc(N)c(C#N)c12 (stereo partly drawn)")
8.52
>>> result_value("CC1(O)COCCN(c2nc(OC[C@@]34CCCN3C[C@H](F)C4)nc3c(F)c(-c4ccc(F)c5sc(N)c(C#N)c45)c(O)cc23)C1 (stereo partly drawn)")
8.40
>>> result_value("N#Cc1c(N)sc2c(F)ccc(-c3c(Cl)cc4c(N5CCCOCCC5)nc(OC[C@@]56CCCN5C[C@H](F)C6)nc4c3F)c12 (single isomer, unassigned) [Example 18]")
8.70
>>> result_value("N#Cc1c(N)sc2c(F)ccc(-c3c(Cl)cc4c(N5CCCC6(CC(=O)N6)C5)nc(OC[C@@]56CCCN5C[C@H](F)C6)nc4c3F)c12 (stereo partly drawn)")
8.30
>>> result_value("N#CC[C@@H]1CCCN1c1nc(OC[C@@]23CCCN2C[C@H](F)C3)nc2c(F)c(-c3ccc(F)c4sc(N)c(C#N)c34)c(Cl)cc12")
8.15
>>> result_value("N#Cc1c(N)sc2c(F)ccc(-c3c(Cl)cc4c(N5CCCC6(CC(O)C6)C5)nc(OC[C@@]56CCCN5C[C@H](F)C6)nc4c3F)c12 (stereo partly drawn)")
7.60

(I) CC1(O)COCCN(c2nc(OC[C@@]34CCCN3C[C@H](F)C4)nc3c(F)c(-c4ccc(F)c5sc(N)c(C#N)c45)c(Cl)cc23)C1 (single isomer, unassigned) [Example 22]
(II) N#Cc1c(N)sc2c(F)ccc(-c3c(Cl)cc4c(N5CCC6CCC(C5)O6)nc(OC[C@@]56CCCN5C[C@H](F)C6)nc4c3F)c12 (stereo partly drawn)
Query block: Hey, which is lower on measured pIC50, I or II ? Your answer should be the label attached to the chosen record.
Result block: II
(II: 8.00, I: 8.70)

---

tested-system: GDP-bound KRAS protein (aa 1-169), G12D and C118A; SOS-mediated nucleotide exchange (Homo sapiens (Human), UniProt P01116, C118A/G12D)
experimental-protocol: KRAS G12D Coupled Nucleotide Exchange Assay
Format: biochemical
reported-conditions: 2 h compound pre-incubation, GTP, cRAF AlphaScreen
property-label: IC50 (nM)

>>> result_value("N#Cc1c(N)sc2c(F)ccc(-c3c(Cl)cc4c(N5CCCC6(CC(O)C6)C5)nc(OC[C@@]56CCCN5C[C@H](F)C6)nc4c3F)c12 (stereo partly drawn)")
28
>>> result_value("N#Cc1c(N)sc2c(F)ccc(-c3c(Cl)cc4c(C5=CCCOC5)nc(OC[C@@]56CCCN5C[C@H](F)C6)nc4c3F)c12 [Example 70, bis(2,2,2-trifluoroacetate)]")
19
>>> result_value("N#Cc1c(N)sc2c(F)ccc(-c3c(Cl)cc4c(N5CCCOCCC5)nc(OC[C@@]56CCCN5C[C@H](F)C6)nc4c3F)c12 (single isomer, unassigned) [Example 19]")
94

(A) N#Cc1c(N)sc2c(F)ccc(-c3c(Cl)cc4c(N5CCCC(=O)CC5)nc(OC[C@@]56CCCN5C[C@H](F)C6)nc4c3F)c12
(B) N#CC[C@@H]1CCCN1c1nc(OC[C@@]23CCCN2C[C@H](F)C3)nc2c(F)c(-c3ccc(F)c4sc(N)c(C#N)c34)c(Cl)cc12
Query block: Hey, which is lower on measured IC50, A or B ? Your answer should be the label attached to the chosen record.
Result block: A
(A: 3 nM, B: 7 nM)

---

tested-system: His-tagged KRAS G12D protein (Homo sapiens (Human), UniProt P01116, G12D)
experimental-protocol: KRAS G12D TR-FRET Assay
reported-conditions: biotinylated KRPep-2d, 10 μM GDP
property-label: IC50 (nM)

>>> result_value("N#Cc1c(N)sc2c(F)ccc(-c3c(Cl)cc4c(N5CCCC6(CCOC6)C5)nc(OC[C@@]56CCCN5C[C@H](F)C6)nc4c3F)c12 (stereo partly drawn)")
34
>>> result_value("N#Cc1c(N)sc2c(F)ccc(-c3c(Cl)cc4c(N5CCCCC(S(N)(=O)=O)C5)nc(OC[C@@]56CCCN5C[C@H](F)C6)nc4c3F)c12 (stereo partly drawn)")
3
>>> result_value("N#Cc1c(N)sc2c(F)ccc(-c3c(Cl)cc4c(N5CCCCC(F)C5)nc(OC[C@@]56CCCN5C[C@H](F)C6)nc4c3F)c12 (stereo partly drawn)")
2
>>> result_value("CCC1(O)CCCN(c2nc(OC[C@@]34CCCN3C[C@H](F)C4)nc3c(F)c(-c4ccc(F)c5sc(N)c(C#N)c45)c(Cl)cc23)C1 (stereo partly drawn)")
8

(a) N#Cc1c(N)sc2c(F)ccc(-c3c(Cl)cc4c(N5CCC[C@H]5C#N)nc(OC[C@@]56CCCN5C[C@H](F)C6)nc4c3F)c12
(b) CC1(O)CCCCN(c2nc(OC[C@@]34CCCN3C[C@H](F)C4)nc3c(F)c(-c4ccc(F)c5sc(N)c(C#N)c45)c(Cl)cc23)C1 (single isomer, unassigned)
Query block: Hey, which is lower on measured IC50, a or b ? Your answer should be the label attached to the chosen record.
Result block: a
(a: 1 nM, b: 3 nM)

---

tested-system: GDP-bound KRAS protein (aa 1-169), G12D and C118A; SOS-mediated nucleotide exchange (Homo sapiens (Human), UniProt P01116, C118A/G12D)
experimental-protocol: KRAS G12D Coupled Nucleotide Exchange Assay
Type: biochemical
reported-conditions: 2 h compound pre-incubation, GTP, cRAF AlphaScreen
property-label: IC50 (nM)

Example entries and their recorded answers appear below.
>>> result_value("CC(C)(O)COc1nc(N2CCOC[C@@](C)(O)C2)c2cc(Cl)c(-c3ccc(F)c4sc(N)c(C#N)c34)c(F)c2n1 (single isomer, unassigned)")
34
>>> result_value("N#Cc1c(N)sc2c(F)ccc(-c3c(Cl)cc4c(N5CCCOCCC5)nc(OC[C@@]56CCCN5C[C@H](F)C6)nc4c3F)c12 (single isomer, unassigned) [Example 18]")
2
>>> result_value("COC[C@@H]1CCCN1c1nc(OC[C@@]23CCCN2C[C@H](F)C3)nc2c(F)c(-c3ccc(F)c4sc(N)c(C#N)c34)c(Cl)cc12")
21
>>> result_value("N#Cc1c(N)sc2c(F)ccc(-c3c(Cl)cc4c(N5CCC[C@@H](S(N)(=O)=O)C5)nc(OC[C@@]56CCCN5C[C@H](F)C6)nc4c3F)c12")
6
>>> result_value("CS(=O)(=O)N1CC2(CCCN(c3nc(OC[C@@]45CCCN4C[C@H](F)C5)nc4c(F)c(-c5ccc(F)c6sc(N)c(C#N)c56)c(Cl)cc34)C2)C1")
4

(1) N#Cc1c(N)sc2c(F)ccc(-c3c(Cl)cc4c(N5CCC6(CCCS6(=O)=O)C5)nc(OC[C@@]56CCCN5C[C@H](F)C6)nc4c3F)c12 (some centres unmarked)
(2) N#Cc1c(N)sc2c(F)ccc(-c3c(Cl)cc4c(N5CCCC6(CCS(=O)(=O)C6)C5)nc(OC[C@@]56CCCN5C[C@H](F)C6)nc4c3F)c12 (some centres unmarked)
(3) N#Cc1c(N)sc2c(F)ccc(-c3c(Cl)cc4c(N5CCCCC5)nc(OC[C@@]56CCCN5C[C@H](F)C6)nc4c3F)c12
Query block: rank_up(items): orders items by reported IC50 in ascending numerical order. Provide your answer as the labels ordered per the instruction.
Result block: 3, 2, 1
(3: 7 nM, 2: 10 nM, 1: 41 nM)

(I) C[C@@]1(CO)CCCN(c2nc(OC[C@@]34CCCN3C[C@H](F)C4)nc3c(F)c(-c4ccc(F)c5sc(N)c(C#N)c45)c(Cl)cc23)C1
(II) N#Cc1c(N)sc2c(F)ccc(-c3c(Cl)cc4c(N5CCC[C@H](O)C5)nc(OC[C@@]56CCCN5C[C@H](F)C6)nc4c3F)c12
(III) N#Cc1c(N)sc2c(F)ccc(-c3c(Cl)cc4c(N5CCCC6(CCOC6)C5)nc(OC[C@@]56CCCN5C[C@H](F)C6)nc4c3F)c12 (some centres unmarked)
(IV) N#Cc1c(N)sc2c(F)ccc(-c3c(Cl)cc4c(N5CCCCOCC5)nc(OC[C@@]56CCCN5C[C@H](F)C6)nc4c3F)c12
Query block: Rank descending by IC50. Provide your answer as the labels ordered per the instruction.
Result block: III, I, II, IV
(III: 46 nM, I: 18 nM, II: 6 nM, IV: 2 nM)
